FYI, the data here is from PubChem BioAssay.

Target: Carbonic anhydrase 2 (Homo sapiens) (UniProt P00918)
Assay: CAII small-molecule binders, profiling panel, biochemical, small-molecule microarray, Alexa647-labelled CAII (AID 1122)
Details: CAII-A647 binding fluorescence, higher = more signal
Entries are sorted into classes by composite z-score as follows: low value: < -0.009; medium value: ≥ -0.009 and < 0.5; high value: ≥ 0.5

> print(dat)
                                   compound  qualitative.label
1  C=C(/C(=C/C[C@H](OC(C)=O)c1ccc(OCCO)cc1)c1cnc2ccccc2c1)C(C)C         high value
2  CO[C@H]1COC(=O)[C@@H]2CCCN2C(=O)CC=C[C@@H](C)[C@H](OC)COC(=O)CC=C[C@@H]1C          low value
3  CCCCCCc1nc(CCCc2cc3c(c(CCCCCC)n2)[Si](C(C)C)(C(C)C)O[C@H]3c2ccccc2)cc2c1[Si](C(C)C)(C(C)C)O[C@H]2c1ccccc1          low value

Band assignment needed for "Cn1c(=O)n2n(c1=O)[C@H]1[C@H](O)[C@@H]3O[C@@H]3C(=NOC[C@@H](O)COCc3ccco3)[C@H]1CC2" please. low value

Band assignment needed for "COCC(=C=CC[C@@H](O)c1ccccc1OCCO)CCO" please. high value
